Reference for the values: paper PMC11240139

I'd be grateful if you could share measured inhibition at 10 µM for these entries.
Tested on: SF-268 (CNS cancer)
Assay: NCI-60 SRB cytotoxicity screen
Format: cell-based
Conditions: Homo sapiens; SF-268, single dose 10 μM; read-out: growth inhibition (GI%)
Quick reminder: number only, in %, skip the unit.

Query (compound): "CCc1cccc2cc(-c3cc(-c4ccc(OC)cc4)[nH]c(=O)c3C#N)c(Cl)nc12" ; field requested: inhibition at 10 µM
21.4

Query (compound): "CCc1cccc2cc(-c3cc(-c4ccc(F)cc4)[nH]c(=S)c3C#N)c(Cl)nc12" ; field requested: inhibition at 10 µM
21

Query (compound): "CCc1cccc2cc(-c3cc(-c4cc(OC)c(OC)c(OC)c4)[nH]c(=S)c3C#N)c(Cl)nc12" ; field requested: inhibition at 10 µM
31.7

Query (compound): "CCc1cccc2cc(-c3cc(-c4ccc(OC)cc4)[nH]c(=S)c3C#N)c(Cl)nc12" ; field requested: inhibition at 10 µM
23.1

Query (compound): "CCc1cccc2cc(-c3cc(-c4cc(OC)c(OC)c(OC)c4)[nH]c(=O)c3C#N)c(Cl)nc12" ; field requested: inhibition at 10 µM
34.4

Query (compound): "CCc1cccc2cc(-c3cc(-c4ccc(OC)c(OC)c4)[nH]c(=S)c3C#N)c(Cl)nc12" ; field requested: inhibition at 10 µM
32.2

====

I'd be grateful if you could share measured inhibition at 10 µM for these entries.
Tested on: A549/ATCC (non-small cell lung cancer)
Test: NCI-60 SRB cytotoxicity screen
Assay type: cell-based
Conditions: Homo sapiens, single dose 10 μM, read-out: growth inhibition (GI%)

Query (compound): CCc1cccc2cc(C3C=C(c4ccc(OC)cc4)NC(=S)N3)c(Cl)nc12 (centres unmarked) ; field requested: inhibition at 10 µM
< 10%

Query (compound): "CCc1cccc2cc(-c3cc(-c4ccc(F)cc4)[nH]c(=S)c3C#N)c(Cl)nc12" ; field requested: inhibition at 10 µM
< 10%

Query (compound): "CCc1cccc2cc(C=CC(=O)c3ccc(OC)cc3)c(Cl)nc12" ; field requested: inhibition at 10 µM
< 10%

Query (compound): "CCc1cccc2cc(-c3cc(-c4ccc(Br)cc4)[nH]c(=O)c3C#N)c(Cl)nc12" ; field requested: inhibition at 10 µM
< 10%

Query (compound): "CCc1cccc2cc(-c3cc(-c4cc(OC)c(OC)c(OC)c4)[nH]c(=S)c3C#N)c(Cl)nc12" ; field requested: inhibition at 10 µM
38.1%

Query (compound): "CCc1cccc2cc(-c3cc(-c4ccc(F)cc4)[nH]c(=O)c3C#N)c(Cl)nc12" ; field requested: inhibition at 10 µM
< 10%

Query (compound): "CCc1cccc2cc(C=CC(=O)c3ccc(OC)c(OC)c3)c(Cl)nc12" ; field requested: inhibition at 10 µM
43.5%

Query (compound): "CCc1cccc2cc(-c3cc(-c4ccc(OC)c(OC)c4)[nH]c(=O)c3C#N)c(Cl)nc12" ; field requested: inhibition at 10 µM
< 10%

====

I'd be grateful if you could share measured inhibition at 10 µM for these entries.
Tested on: NCI-H322M (non-small cell lung cancer)
Test: NCI-60 SRB cytotoxicity screen
Format: cell-based
Details: Homo sapiens, single dose 10 μM, read-out: growth inhibition (GI%)
Quick reminder: number only, in %, skip the unit.

Query (compound): "CCc1cccc2cc(C=CC(=O)c3cc(OC)c(OC)c(OC)c3)c(Cl)nc12" ; field requested: inhibition at 10 µM
31.1

Query (compound): CCc1cccc2cc(C3C=C(c4cc(OC)c(OC)c(OC)c4)NC(=S)N3)c(Cl)nc12 (stereo not shown) ; field requested: inhibition at 10 µM
18.3
